# Tested on: MS2 coat protein
# testName: apparent Kd, MS2 coat protein; higher = weaker binding; RNA-MaP array
# measurementSetup: designed as: OFF switch for flavin mononucleotide; no ligand
endpoint: apparent Kd (nM)

• CGUGUACAUGAGGAUCACCCAUGUUAGGAUAUCUUACCAAAGUCGAGGUGACUCCGGGAGAGAAGGAACUGGCA = 78.6
• UAAUAUGGAGGAUAUAAAGUCGAAGACAUGAGGAUCACCCAUGUCCUUGGUUGAAAGAGGUUAGAAGGCCAUAGUA = 9.47
• AAGCGCAAAGGAUAUAGCCGAUCCAACAUGAGGAUCACCCAUGUGACUUCCGACAUCAAGCUAGAAGGUUGAUGCA = 47.6

---

# Tested on: MS2 coat protein
# testName: apparent Kd, MS2 coat protein; higher = weaker binding; RNA-MaP array; FMN 200 µM where present
# measurementSetup: designed as: OFF switch for flavin mononucleotide; no ligand
Please enter true where apparent Kd is greater than or equal to 20 nM, and false where it is lower.

* UGAACUAUGUAGAAGGCCCACAUUAAUAUGUAGGGAGGAUAUACAUGAGGAUCACCCAUGUGAAGAGCAAGAGGGUUUAACAGA | true
* CGAUAGGACAGAGGAUAUACACAUGAGGAUCACCCAUGUGAUUACAACUCUUAAGAUUCAAACAUGUAGAAGGCUGUCCUAUCG | false
* UCUAAUUAGUGAGGAUAUACAUAAUUUAUUACUGUAGAAGGCACAAACCUCAAGACAUGAGGAUCACCCAUGUGGUAUUUAGAU | true
* CCAUGGUGGGCAGGAUAUCGUCCAGCUUGCGGACGAGAAGGGCUCAAACAUGAGGAUCACCCAUGUGAAGAGCGGGUUGUCCAA | true
* CCGGAAUUGCAGGAUAUAGGAGUCGAUAGACACCUAGAAGGGCAGACAUGAGGAUCACCCAUGUGUCCUACCGG | false
* UGUUUUCAUGUAGGAUAUGCUUGUCGUAGAUACGCAGAAGGACAUGAGGAUCACCCAUGUUAAAGCGACAGAGUAUAGAUUCUU | false
* GUCAGCUCUUGAGGAUAUACAACACUGCUUCGGCAGUGUAUUAAGAUCACAUGAGGAUCACCCAUGUAGAAGGCACGAGCUGAU | false
* GCGAGUAAAGCAGGAUAUCUAUUGUCUCUGUAACAUGAGGAUCACCCAUGUAGAGAAGGGCUUAGUCAUACAAUUCGAACUCGC | false

---

# Test system: MS2 coat protein
# testName: apparent Kd, MS2 coat protein; higher = weaker binding; RNA-MaP array; FMN 200 µM where present
# measurementSetup: ligand present: flavin mononucleotide; designed as: OFF switch for flavin mononucleotide
endpoint: apparent Kd (nM)

* UGGUCCUGAGGAUAUGCACCUCAAGUUAUCGUUCACCAUGCACAUGAGGAUCACCCAUGUAGAAGGUAGGAUCG | 16.6
* UAUAAGAACGAAGGAUAUGGUUACAUGAGGAUCACCCAUGUAUUAAUAUUGAUCUAUUUUUAUAACCAGAAGGUCGAGAGUAAA | 39.7
* GCGUUUGUAUCACAUGUAUUACAUGAGGAUCACCCAUGUUACUAGGAUAUGUAUUAGUAUUAUCAACAGAAGGAGUAAGAACGC | 18.3
* UGUCGGAGCAGAGGAUAUUACAUGAGGAUCACCCAUGUAUGAACCAAUAGCUGGAAACAGCAACGUAAGAAGGCUGCUCCGACA | 47.2
* CAGUACUGAGGAUAUACAUGAGGAUCACCCAUGUGUUCCAGCUAGGGAACUAGCAAAAGUAGAAGGCAGUACUG | 437
* UCAGGCUUCGAGAAGGACAUGAGGAUCACCCAUGUUAGUGUGAAGCAGCCGUGAGGCUGCAUCAUGUAGGAUAUCGGAGUCUGC | 189
* UUGUGCAAAGGAUAUACGUCCGACCUCGUGGAACUGAGAAUACAUGAGGAUCACCCAUGUAGAAGGUUGCCGAG | 15.1
* UUGUUAUAUGUAGGAUAUGCAUAUUGUUAUUAUGCAGAAGGACAUGAGGAUCACCCAUGUAUAUUAUUAUUAUAUAUUAUAUAU | 64.7
* CCAUCGGAAGGAUAUACAUGAGGAUCACCCAUGUGCGAGCCCGCGCUCUCGGGAAGAUGUAGAAGGUUCAAGAA | 36.3
* GUCAGCUCGUGAGGAUAUACAUGUGCUGGAUACAGCACUAUUGUGUUCACAUGAGGAUCACCCAUGUAGAAGGCACGAGCUGAU | 87.3
* UUUAUGUCAGGAUAUGAGGAGUAGAACAAUAGUACUACUCCUCAGAAGGGACAUGAGGAUCACCCAUGUUCCUC | 91.9
* UCCGACCUAGGAUAUACCUGGGCCGCCUCGUGUUAUCACCUACAUGAGGAUCACCCAUGUAGAAGGAGGACGGU | 64.1
* CUUGUUUAUGUAGGAUAUGCCUGGCGUGCCUUUGCAGAAGGACAUGAGGAUCACCCAUGUAGUAUGAGGCUUACCCUUGUCGCC | 24.5
* GGUACUCAAAGAGUACCAAUACGAACAUGAGGAUCACCCAUGUAGGAUAUGCUACUCAAAGAGUAGCAGAAGGACAUGUGCUUA | 135
* UUGUUACAUGAGGAUCACCCAUGUGAGGAUAUGAGUCAGUCACGGUGACGUGGCUGACUCAGAAGGCACUAUGG | 149
* CCAAGCUGUGUGAGGAUAUGCUGGUCCUUGGAUCAGCAGAAGGCACAUGAGGAUCACCCAUGUGAAAAGCUUGG | 52.1
* GCGAGUAAAGCAGGAUAUCUAUUGUCUCUGUAACAUGAGGAUCACCCAUGUAGAGAAGGGCUUAGUCAUACAAUUCGAACUCGC | 7.32
* GCUUAGUAAGGAUAUUCACCGAUAAACAUGAGGAUCACCCAUGUCAUGUACCGUCGCCCGGAAGAAGGUACAGGCU | 44.9
* GGGCUCGGAGGAUAUACAAUGGGCUCGGGAAAUCGGGUCUUACAUGAGGAUCACCCAUGUAGAAGGUCGGGUCU | 47.1
* CCACCCUGAGGAUAUCCACCCUCAUACAUGAGGAUCACCCAUGUUCAUCCCUGAGUACCCGGAGAAGGCAGAUUUC | 57.9
* UUGGGACAUGAGGAUCACCCAUGUCAGGAUAUCCCGGCCCGCCCGUGAGGGCGGGCCGGGAGAAGGGACCUUUG | 42.9
* GUCCUACAUGAGGAUCACCCAUGUGAGGAUAUGUGGUUAGCUGCUAGGUAGUUAGUAUGCAGAAGGUACGUGAU | 41.9
* UUCCUCAUAACAUGAGGAUCACCCAUGUAUUAAUAGAUAACUGAGGAUAUACUAAUAAUGUUUAUGUAGAAGGCAGAUACAGAU | 106

---

# Test system: MS2 coat protein
# testName: apparent Kd, MS2 coat protein; higher = weaker binding; RNA-MaP array; FMN 200 µM where present
# measurementSetup: ligand present: flavin mononucleotide; designed as: OFF switch for flavin mononucleotide
Classes based on apparent Kd: I: < 30 nM; II: ≥ 30 nM and < 90 nM; III: ≥ 90 nM

* AUCUCACAUGAGGAUCACCCAUGUUAGGAUAUUGUUUCUUGAUGAUUACAUCAAGCGAUAAGAAGGGACAGACU | I
* ACAUGAGGAUCACCCAUGUACAGGGUUUAGUUUCAUUGUUUGAAGGAUAUACUUAGUUAGUUGUUGUAGAAGGUCAUAUUUUAU | III
* CUUUUGUGAGGAUAUCAGUAGUAAUUAAAUAAAAUUACUACUGAGAAGGCACAUGAGGAUCACCCAUGUUCCUC | III
* AGAAACUACGAGAAGGACAUGUGGUCCUUCGAAAACAUGAGGAUCACCCAUGUAGGAUAUCGUAGUUUCAGGAUCGUGAGAUCA | I
* CAGGACAGGAAACGGAGCGGCCAACAUGAGGAUCACCCAUGUAAGGAUAUGCCUACUAAAAGUAGGCAGAAGGUACAGAAGGCA | II
* GCAGUGUCAGGAUAUAGUUCGAGUUCGGAAAUGAGCUUGAGCUAGAAGGGACAUGAGGAUCACCCAUGUGCUGU | II
* AUUUUGUGAGGAUAUGUGGCUUCGAUCGUGAAAACGAGGCUACAGAAGGCACAUGAGGAUCACCCAUGUUCCUA | III
* AAUAUAAAAGAGCUGGAUAACUCGACAUGAGGAUCACCCAUGUAGGAUAUCAGCACGAUAAGUGCUGAGAAGGACAACCAGCUC | I
* UUUUUGUCAGGAUAUGACUAGAUGCACGUUAGUGCAUCUACUUAGAAGGGACAUGAGGAUCACCCAUGUAUUCC | I
* UGUGCGUAUGUGAGGAUAUGCUGGUCCUUGGAUCGGCAGAAGGCACAUGAGGAUCACCCAUGUGGUGUCGUUCU | I
* GUUAAGGUAGGAUAUACGAUAAUAUAGGGUAGAUAUAUAACACAUGAGGAUCACCCAUGUAGAAGGACCAAUUG | II
* GUUAGUUAAGGAUAUACAGGGAGCUGCGGCGUCUCGCCGCAACAUGAGGAUCACCCAUGUAGAAGGUAGCCGUU | III
* CAUAGGCGAGGAUAUACAUGAGGAUCACCCAUGUAAGGAAACCUGGCAGACUCAGAAUGUAGAAGGCGCACUGA | II
* CAGUACUGAGGAUAUACAUGAGGAUCACCCAUGUGAAUAGCAUAGGAAACUAUGCUAUGUAGAAGGCAGUACUG | I
* CCAUUUCAGUAAGGAUAUAUAAACAUGACGAUACAUGAGGAUCACCCAUGUGUAGAAGGUACUAAUACAUAUAAUGCAAUGUUC | I
* GUGCUUGUCGAAGGAUAUGGUUACAUGAGGAUCACCCAUGUUAUGCUUGGUUACUUGUUUAGUUUCCAGAAGGUCGAUUAGUUG | III
* GUUUUGGGAGGAUAUGCGUGGAUUAUUUUCGUAUGUUGUUUACAUGAGGAUCACCCAUGUAGAAGGUCUAGAGC | III
* CGAUGGCAUGUAGGAUAUCGAGCUCAAAGAGCUCGAGAAGGACAUGAGGAUCACCCAUGUGCACACAGACAGUGUGCGCUAUCG | III
* UGUGCGUUGAUCUUAGAUCGGAGUACAUGAGGAUCACCCAUGUAGGAUAUUCAAAGACGCAGAUAGAAGAAGGACAUAGGUUUC | I
* AUAUAGAUGGUCAGGAUAUGCUAGUGGUAACAGUAGCAGAAGGGACAUGAGGAUCACCCAUGUAGAUACUGCUC | II
* UUGUUAGGGAGAGGAUAUUGACAUGAGGAUCACCCAUGUAUUUGGGAGUGUUUACUGAAUUCUUACGAGAAGGCUUACGAAAUC | III
* UGAACUAUGUAGAAGGCCCACAUUAAUAUGUAGGGAGGAUAUACAUGAGGAUCACCCAUGUGAAGAGCAAGAGGGUUUAACAGA | III
* AUCAUGUGAGGAUAUGUGAUCAACCUUCUGUAUAGAUGAUUACAGAAGGCACAUGAGGAUCACCCAUGUAGAUC | II
* UGUCGGAGCAGAGGAUAUAUACAUGAGGAUCACCCAUGUAAAUGAAUGAGCUGGAAACAGCAAGUAUAGAAGGCUGCUCCGACA | I
* UUAAUUAAUUAAUUCGUCAUUACAUGAGGAUCACCCAUGUAUAAGGAUAUGCAGUGGAAUACACUGCAGAAGGUAUACAAGACG | I
* UGUCGGAGAAGAGGAUAUUACAUGAGGAUCACCCAUGUAUGAACCAAUAGCUGGAAACAGCAAUGUAAGAAGGCUGCUCCGACA | I
* AAUAGGCGAGGAUAUACAUGAGGAUCACCCAUGUAAGUAAGCCUGGCUGAAACUAAAUGUAGAAGGCGCAAUAA | II
